Target: MAPK14 (human) (UniProt Q16539)
Sequence (Q16539 whole entry, looked up): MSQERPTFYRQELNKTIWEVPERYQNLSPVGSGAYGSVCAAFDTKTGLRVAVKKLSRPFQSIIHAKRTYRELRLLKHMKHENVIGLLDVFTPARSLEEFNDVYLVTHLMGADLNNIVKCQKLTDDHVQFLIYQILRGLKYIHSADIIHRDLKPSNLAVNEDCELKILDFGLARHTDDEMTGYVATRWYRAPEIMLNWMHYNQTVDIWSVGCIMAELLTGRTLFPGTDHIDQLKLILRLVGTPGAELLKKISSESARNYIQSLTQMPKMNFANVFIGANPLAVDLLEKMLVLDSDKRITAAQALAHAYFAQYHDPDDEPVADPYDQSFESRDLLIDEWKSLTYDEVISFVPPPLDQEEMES
PARAMETER MEASURED: IC50

Answered examples (6):
- COMPOUND: "CC(=O)N1CCC(n2cc(-c3cnc(N)c4oc(-c5ccc6c(c5)CCO6)cc34)cn2)CC1"
  ASSAY VALUE: "≤ 100 nM"
- COMPOUND: "CC(C)n1cc(-c2cnc(N)c3oc(-c4cccc5cnccc45)cc23)cn1"
  ASSAY VALUE: "100 to 1000 nM"
- COMPOUND: "CC(C)N1CCC(n2cc(-c3cnc(N)c4oc(-c5cccc6cnccc56)cc34)cn2)CC1"
  ASSAY VALUE: "100 to 1000 nM"
- COMPOUND: "CC(=O)N1CCC(n2cc(-c3cnc(N)c4oc(-c5cn[nH]c5)cc34)cn2)CC1"
  ASSAY VALUE: "> 10000 nM"
- COMPOUND: "Nc1ncc(-c2cnn(C3CCN(C(=O)C4CCC4)CC3)c2)c2cc(-c3cccc4cnccc34)oc12"
  ASSAY VALUE: "100 to 1000 nM"
- COMPOUND: "CC(=O)N1CCC(n2cc(-c3cnc(N)c4oc(-c5cccc6cnsc56)cc34)cn2)CC1"
  ASSAY VALUE: "≤ 100 nM"

Task: Reported IC50, compound Nc1ncc(-c2cnn(C3CNC3)c2)c2cc(-c3csc4cnccc34)oc12 : ____
Output: 100 to 1000 nM

Task: # repeat for Nc1ncc(-c2cnn(C3CCNCC3)c2)c2cc(-c3ccc4[nH]ncc4c3)oc12
Output: 100 to 1000 nM
